Assay: plasmodial surface anion channel blockers, osmotic lysis – cell-based, P. falciparum Indochina, OD700, 18 h, primary screen (AID 1157)
Details: P. falciparum Indochina infected erythrocytes, osmotic lysis OD700, 18 h; higher = more signal, called active from +8 up or from −8 down
recorded_endpoint: z-score
Answer using only a numeral; do not append any unit.

Below: 5 molecules and their reported z-score.
>>> reading("CC(=O)OCC1C2CC[C@H]3C(OCc4ccc(F)cc4C(F)(F)F)OC[C@]4(C)[C@H]3C2=C(CN4C(=O)OC(C)(C)C)[C@H](C)C1COC(C)=O (some centres not stated)")
0.593
>>> reading("O=C1O[C@H](c2ccccc2)[C@H](c2ccccc2)N2[C@H]1[C@@H](C(=O)O)[C@]1(C(=O)Nc3ccc(C#CCCO)cc31)[C@H]2c1ccc(OCCO)cc1")
0.138
>>> reading("COC(=O)[C@H](Cc1ccc(O)cc1)N[C@@H](/C=C/C1CC1)[C@H](O)Cc1ccccc1")
-0.0396
>>> reading("COc1ccc(C(O)C2C=CC3C(=O)NC(=O)C3N2Nc2ccc(Cl)cc2Cl)c2ccccc12 (configuration not stated)")
1.78
>>> reading("OCCCC1=CC(c2ccc(CN3CCCC3)cc2)N(Cc2cccc(OC(F)(F)F)c2)CC1 (configuration not stated)")
0.749

Please look up its z-score: O=C1[C@H]2C=C(I)[C@H](C[C@@H]2OCCCCCCO)[C@@]12CO2
0.035

Please look up its z-score: C#CCN1[C@@H](Cc2ccccc2)C(=O)O[C@H](Cc2ccccc2)[C@@H]1/C=C/C1CC1
-0.48

====

Test: JC-1 mitochondrial signal, unstimulated HepG2 cells – cell-based, JC-1 fluorescence, 24 h, 100 nL compound, profiling panel (AID 1167); note: test concentration not given here
Details: HepG2 mitochondrial potential, higher = more signal
# Lookup of reported z-score keyed by entry
Answer using only a numeral; do not append any unit.

Below: 3 compounds and their reported z-score.
>>> reading("COC(=O)C1(Cc2ccccc2)C=C2C(=C(C)C(=O)C2C)CN1 (centres undefined)")
-0.237
>>> reading("CN(C)CCCNC(=O)[C@@]1(C)c2ccccc2C(=O)N(Cc2ccc(OC(F)(F)F)cc2)[C@H]1c1ccc(CO)cc1")
1.88
>>> reading("O=C1[C@H]2C=C(I)[C@H](C[C@@H]2OCCCCCCO)[C@@]12CO2")
-1.58

Please look up its z-score: CCCCCCc1nc(Cc2cc(OC)c(OC)c(OC)c2)cc2c1[Si](C(C)C)(C(C)C)O[C@H]2c1ccccc1
1.03

====

Assay: blood-stage malaria parasite viability loss – strain 3D7, DAPI fluorescence, 100 nL, primary screen (AID 1184);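 note: parasites grown inside human red blood cells in medium with human serum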
Conditions: P. falciparum 3D7 growth, 3 d, higher = more signal
recorded_endpoint: z-score
Answer using only a numeral; do not append any unit.

Below: 6 molecules and their reported z-score.
>>> reading("C=CC[C@@]1(C(=O)N(C)C)N=C(c2ccc(OCCCO)cc2)O[C@@H]1c1ccccc1CN=[N+]=[N-]")
-2.33
>>> reading("COc1ccc([Si](C)(C)[C@@H]2[C@@H](CC(=O)N(CCO)Cc3ccccc3)O[C@]3(C(=O)N(Cc4ccc(I)cc4)c4ccccc43)[C@H]2C)cc1")
-2.2
>>> reading("N#Cc1ccc(-c2cccc(=O)o2)cc1")
0.944
>>> reading("COC(=O)c1cccc([C@H]2OC(=CC(=O)OC(C)C)C[C@@H](c3cccc(C(=O)OC)c3)O2)c1")
-0.832
>>> reading("O=C1NC(=O)C2C1C=CC(C(O)c1ccc(B(O)O)cc1)N2Nc1ccc(Cl)cc1Cl (centres undefined)")
-0.195
>>> reading("O=C(NCc1ccccc1)[C@@H]1c2ccccc2C(=O)N(Cc2ccc(OC(F)(F)F)cc2)[C@H]1c1ccc(CO)cc1")
-0.655

Please look up its z-score: Cc1ccccc1C(O)C1C=CC2C(=O)N(c3ccccc3)C(=O)C2N1Nc1ccccc1 (centres undefined)
-0.189

Please look up its z-score: COc1ccc(C(=O)Nc2cccc(CN3C(=O)[C@@]4(O[C@@H](CC(=O)N5CCC[C@H]5CO)[C@H]([Si](C)(C)c5ccc(OC)cc5)[C@H]4C)c4ccccc43)c2)cc1
-2.16

Please look up its z-score: C=C(COC)C(=O)CC[C@@H](OC(C)=O)c1ccccc1OCCO
-2.06

====

# Lookup of reported composite z-score keyed by entry
Molecular target: Torsin-1A-interacting protein 2 (Homo sapiens) (UniProt Q8NFQ8)
Sequence (Q8NFQ8 whole entry, looked up): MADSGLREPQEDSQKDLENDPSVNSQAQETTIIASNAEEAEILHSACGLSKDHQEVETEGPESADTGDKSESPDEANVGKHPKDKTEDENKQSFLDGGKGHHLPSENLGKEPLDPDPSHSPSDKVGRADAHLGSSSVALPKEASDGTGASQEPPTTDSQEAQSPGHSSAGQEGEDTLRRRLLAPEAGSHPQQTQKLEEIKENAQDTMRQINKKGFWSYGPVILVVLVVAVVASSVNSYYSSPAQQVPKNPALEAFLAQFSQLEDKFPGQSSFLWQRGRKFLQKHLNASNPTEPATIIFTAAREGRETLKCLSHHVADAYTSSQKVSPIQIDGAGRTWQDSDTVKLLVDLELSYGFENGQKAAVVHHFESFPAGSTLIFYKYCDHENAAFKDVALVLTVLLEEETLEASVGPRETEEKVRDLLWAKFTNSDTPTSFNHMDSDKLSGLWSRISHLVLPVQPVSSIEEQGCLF
Test: small molecules binding lysate-expressed LULL1 – cell lysate, human LULL1 lysate, 635/667 nm fluorescence, primary screen (AID 1092);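 note: probe is lysate of COS7 cells overexpressing human LULL1; score merges per-feature 667 nm fluorescence with signal-to-noise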
Details: small-molecule microarray, hLULL1 lysate binding, 635 nm fluorescence; higher = more signal
Answer using only a numeral; do not append any unit.

Requested read-out composite z-score, target or system Torsin-1A-interacting protein 2 (Homo sapiens) (UniProt Q8NFQ8), entry CO[C@H]1O[C@H](CO)[C@@H](OC(=O)Nc2ccc3c(c2)OCO3)[C@H](OC(=O)Nc2ccccc2-c2ccccc2)[C@H]1OC(=O)Nc1ccccc1-c1ccccc1
3.35

Requested read-out composite z-score, target or system Torsin-1A-interacting protein 2 (Homo sapiens) (UniProt Q8NFQ8), entry COCCOC(=O)N1C(=O)[C@@]2(c3ccccc31)[C@H](c1ccc(O)cc1)N1[C@H](c3ccccc3)[C@H](c3ccccc3)OC(=O)[C@H]1[C@@H]2C(=O)N1CCCCCCC1
3.9

Requested read-out composite z-score, target or system Torsin-1A-interacting protein 2 (Homo sapiens) (UniProt Q8NFQ8), entry CCOC(=O)C[C@H]1[C@H](OC(=O)Cc2ccc3c(c2)OCO3)[C@@H](NC(=O)Cc2ccc(OC)cc2)c2cc(OCCCO)ccc2N1C(=O)Cc1ccc(OC)cc1
1.3

Requested read-out composite z-score, target or system Torsin-1A-interacting protein 2 (Homo sapiens) (UniProt Q8NFQ8), entry CC(C)C[C@@H]1NC(=O)[C@@]23C(=O)N[C@@H](Cc4ccccc4)C2[C@H](C)[C@@]2(C)O[C@H]2C3/C=C/C/C=C\CNC(=O)CNC1=O (stereo not given in full)
2.23

Requested read-out composite z-score, target or system Torsin-1A-interacting protein 2 (Homo sapiens) (UniProt Q8NFQ8), entry CN(C)CCCNC(=O)[C@@H]1c2ccccc2C(=O)N(Cc2ccccc2C(F)(F)F)[C@H]1c1ccc(CO)cc1
0.767

====

Target: E3 ubiquitin-protein ligase XIAP (Homo sapiens)
Test: small molecules binding XIAP protein – biophysical, small-molecule microarray, fluorescence 635 nm, primary screen (AID 1181);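 note: score merges 667 nm emission and signal to noise over triplicate slides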
Conditions: higher = more signal
recorded_endpoint: composite z-score
Answer using only a numeral; do not append any unit.

Below: 5 compounds and their reported composite z-score.
>>> reading("C=CCN1Cc2ccccc2[C@H]2OC(c3ccc(OCCCO)cc3)=N[C@@]2(CCS(=O)(=O)c2ccccc2)C1=O")
-0.0599
>>> reading("C=CCC(OC(C)=O)[C@@H]1[C@@H](N(Cc2ccc(-c3ccccc3)cc2)C(=O)c2cccc3ccccc23)c2cc(OCCCO)ccc2N1C(=O)Cc1ccc(OC)cc1 (stereo partly specified)")
-0.264
>>> reading("O=C1C[C@@](C(=O)NCc2ccccc2)(c2ccc([N+](=O)[O-])cc2)[C@@H](c2ccc(CO)cc2)N1C1CCCCC1")
-0.031
>>> reading("C=C(C)[C@@H]1CC=C(C(O)C2C=CC3C(=O)N(C)C(=O)C3N2Nc2ccc([N+](=O)[O-])cc2[N+](=O)[O-])CC1 (stereo partly specified)")
0.158
>>> reading("COc1ccc(C(O)C2C=CC3C(=O)N(C)C(=O)C3N2N(c2ccccc2)c2ccccc2)cc1 (stereo unspecified)")
-0.0772

Please look up its composite z-score: [N-]=[N+]=Nc1ccccc1C[C@]1(C(=O)N2CCOCC2)N=C(c2ccc(OCCCO)cc2)O[C@H]1c1ccccc1N=[N+]=[N-]
0.446

Please look up its composite z-score: C=C(/C(=C/C[C@@H](OC(C)=O)c1cccc(OCCO)c1)c1cnc2ccccc2c1)C(C)C
-0.157

Please look up its composite z-score: CCCN1C(=O)[C@]2(CCC(=O)OC(C)(C)C)N=C(c3ccc(OCCCO)cc3)O[C@@H]2c2ccccc21
0.118

Please look up its composite z-score: CC(C)[Si](C#CCCc1ccccc1)(O[C@H](c1ccccc1)c1cn(Cc2ccccc2)nn1)C(C)C
-0.0117

Please look up its composite z-score: NC(=O)N1C(=O)C2C(C1=O)C1C=C(CCCO)C2C(c2ccc(CN3CCCC3)cc2)N1Cc1cc2c(cc1Br)OCO2 (stereo unspecified)
0.0251

Please look up its composite z-score: CC(C)C(O)C1C=CC2C(=O)NC(=O)C2N1Nc1ccccn1 (stereo unspecified)
0.106

====

Assay: COS7 lysate on small-molecule microarray, probe aHis, 635 nm (AID 1123);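 note: z-score combines 667nm fluorescence intensity with signal-to-noise per printed compound spot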
Conditions: COS7 cell lysate, fluorescence, higher = more signal
# Lookup of reported composite z-score keyed by entry
Answer using only a numeral; do not append any unit.

Below: 2 compounds and their reported composite z-score.
>>> reading("COC(=O)[C@@]1(Cc2ccc(OC)cc2)[C@H]2c3cc(C(=O)N4CCCC4)n(Cc4c(CO)[nH]cc(C)c4=O)c3C[C@H]2CN1C(=O)c1ccccc1")
3.24
>>> reading("O=C1C2C=CC(C(O)c3cccs3)N(Nc3ccc([N+](=O)[O-])cc3)C2C(=O)N1c1ccccc1 (stereo unspecified)")
2.08

Please look up its composite z-score: COCCOC(=O)N1C(=O)[C@@]2(c3cc(C#CCC(C(=O)OC)C(=O)OC)ccc31)[C@H](C(N)=O)[C@H]1C(=O)O[C@H](c3ccccc3)[C@H](c3ccccc3)N1[C@@H]2c1ccc(O)cc1
1.97

Please look up its composite z-score: CN1C(=O)[C@@H]2[C@@H](CC(COc3ccccc3)=C3[C@@H](CCc4ccccc4)OB(O)C[C@@H]32)C1=O
0.71

Please look up its composite z-score: COC(=O)[C@@]1(Cc2ccc(F)cc2)[C@H]2c3cc(C(=O)N4CCCC4)n(CCc4ccccn4)c3C[C@H]2CN1C(=O)c1ccccc1
2.13

Please look up its composite z-score: C=C(CCCC)C(=O)CC[C@H](OC(=O)c1ccccc1-c1ccccc1C(=O)O)c1ccc(OCCO)cc1
1.2

Please look up its composite z-score: C=CCC(OC(C)=O)[C@@H]1[C@@H](N(Cc2cccc3ccccc23)C(=O)c2ccc(-c3ccccc3)cc2)c2cc(OCCCO)ccc2N1C(=O)Cc1ccc2ccccc2c1 (stereo partly specified)
0.376

Please look up its composite z-score: CC=CC(O)C1C=CC2C(=O)NC(=O)C2N1Nc1ccc(Cl)cc1Cl (stereo unspecified)
1.72

Please look up its composite z-score: O=C1O[C@@H](c2ccccc2)[C@@H](c2ccccc2)N2[C@@H](c3ccc(OCCO)cc3)[C@]3(C(=O)Nc4ccc(C#CC5(O)CCCCCC5)cc43)[C@@H](C(=O)O)[C@H]12
0.969

Please look up its composite z-score: CN(C)CCCCNC(=O)[C@H]1C[C@H]2C(=O)NCC(=O)N2[C@H]1c1ccc(O)cc1
0.0967

Please look up its composite z-score: O=C1C[C@@](C(=O)NCc2ccccc2)(c2ccc([N+](=O)[O-])cc2)[C@@H](c2ccc(CO)cc2)N1C1CCCCC1
2.89

Please look up its composite z-score: CN(C)CCCC[C@@H]1NC(=O)[C@H]2C[C@@H](C(=O)O)[C@@H](c3ccc(O)cc3)N2C1=O
4.01

Please look up its composite z-score: C=CCOC(=O)[C@H]1[C@@H]2C(=O)O[C@@H](c3ccccc3)[C@@H](c3ccccc3)N2[C@@H](c2ccc(OCCOC(=O)[C@H]3C[C@H]4C(=O)N[C@@H](CC(C)C)C(=O)N4[C@H]3c3ccc(O)cc3)cc2)[C@]12C(=O)Nc1ccccc12
1.74

Please look up its composite z-score: CC(C)C[C@H]1NC(=O)C([C@@H](C)OCc2ccccc2)NC(=O)[C@@]23C(=O)N[C@@H](Cc4ccccc4)C2[C@H](C)[C@@]2(C)O[C@H]2C3/C=C/C/C=C\CNC1=O (stereo partly specified)
1.51

Please look up its composite z-score: COc1ccc([Si](C)(C)[C@H]2[C@H](CC(=O)N3CCC[C@H]3CO)O[C@@]3(C(=O)N(Cc4ccc(N5CCCCC5=O)cc4)c4ccccc43)[C@@H]2C)cc1
1.27

Please look up its composite z-score: CCN(CC)c1ccc(N2CC=CC34O[C@@H]5C=CCCOC(=O)C5[C@H]3C(=O)N(C(C)CO)[C@@H]4C2=O)cc1 (stereo partly specified)
-0.806
